molecular target: Factor XIa (Homo sapiens, UniProt P03951); assay: Factor XIa inhibition assay (FLINT) utilizing a fluorophore-quencher pair peptide substrate 5Fam-[…]-K5Tamra; assay type: biochemical; details: kinetic (KIN) reads; values in nM; read-out: FXIa KIN Inh IC50
Sequence (P03951 388-625 limits assumed): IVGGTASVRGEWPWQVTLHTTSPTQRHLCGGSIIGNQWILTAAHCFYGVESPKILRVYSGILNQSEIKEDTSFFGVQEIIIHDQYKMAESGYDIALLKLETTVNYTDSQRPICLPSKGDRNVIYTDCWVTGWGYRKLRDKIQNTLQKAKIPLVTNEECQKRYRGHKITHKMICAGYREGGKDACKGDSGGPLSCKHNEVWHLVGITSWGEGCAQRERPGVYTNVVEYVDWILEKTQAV
Sequence (P03951 19-387 partner limits assumed): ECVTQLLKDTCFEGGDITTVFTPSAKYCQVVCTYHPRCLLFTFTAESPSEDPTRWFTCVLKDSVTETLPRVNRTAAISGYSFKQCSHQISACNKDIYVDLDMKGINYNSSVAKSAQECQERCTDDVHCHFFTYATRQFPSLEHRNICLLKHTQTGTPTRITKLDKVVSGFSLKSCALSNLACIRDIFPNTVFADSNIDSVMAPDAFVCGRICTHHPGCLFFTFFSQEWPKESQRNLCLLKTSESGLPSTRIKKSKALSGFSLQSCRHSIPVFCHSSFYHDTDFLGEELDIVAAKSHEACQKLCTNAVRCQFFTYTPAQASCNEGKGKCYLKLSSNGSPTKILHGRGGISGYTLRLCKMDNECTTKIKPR
Endpoint: IC50 (nM)

C[C@H]1CC(c2nc(F)c(-c3ccc(N)nc3)[nH]2)n2c1cc(-c1c(-n3cnnn3)ccc(Cl)c1F)cc2=O (stereo in doubt) [Example 40] = 286

P = C[C@H]1C[C@H](c2ncc(-c3ccc(NC(=O)C4CC4)nc3)[nH]2)n2c1nc(-c1c(-n3cnnn3)ccc(Cl)c1F)cc2=O (stereo in doubt) [Example 121]
Q = C[C@H]1C[C@@H](c2ncc(-c3cnc(F)c(N)c3)[nH]2)n2c1cc(-c1c(-n3cnnn3)ccc(Cl)c1F)cc2=O [Example 21]
Compare P and Q by numeric IC50 and name the larger one. Response format: the label of the selected entry.
P
(P: 675 nM, Q: 64.4 nM)
